Cited source: ChEMBL document CHEMBL3091285

- measurement notes: Cytotoxicity against human MRC5 cells assessed as growth inhibition by WST-8 assay
- Type: cell-based
Catalogue of GI50 readings, one per entry.

Previously resolved entries follow.
CC(C)c1ccc2c3c(ccc2c1)C(C)(C)CCC3: > 100 µM
CC(C)C1=C(O)C(=O)C2=C(C=C[C@H]3C(C)(C)CCC[C@]23C)C1=O: 40.2 µM
CC(C)C1=C(O)C(=O)C2=C(CC[C@H]3C(C)(C)CCC[C@]23C)C1=O: 45.7 µM

## Task Value lookup for GI50; key = `CC(C)c1cc2c(cc1O)[C@@]1(C)CCCC(C)(C)[C@@H]1CC2=O`
## Result > 100 µM

## Task Try `CC(C)C1=Cc2ccc3c(c2C(=O)C1=O)C(=O)CCC3(C)C` next.
## Result 20.4 µM

====

- Test system: HL-60
- measurement notes: Cytotoxicity against human HL60 cells assessed as growth inhibition by WST-8 assay
- Type: functional
Catalogue of GI50 readings, one per entry.
Kindly answer with a numeric value in µM, unit omitted.

Previously resolved entries follow.
CC(C)C1=Cc2ccc3c(c2C(=O)C1=O)C(=O)CCC3(C)C: 23.3
CC(C)c1cc2c(cc1O)[C@@]1(C)CCCC(C)(C)[C@@H]1CC2=O [SUGIOL]: 68.6

## Task Value lookup for GI50; key = CC(C)c1cc2c(cc1O)[C@@]1(C)CCCC(C)(C)[C@@H]1CC2 [FERRUGINOL]
## Result 27.3

## Task Try CC(C)c1cc2c(cc1O)[C@@]1(C)CCCC(C)(C)[C@@H]1C[C@H]2CC1=CCC(O)(C(C)C)CC1 (stereo not given in full) next.
## Result 48.1

## Task Try `CC(C)c1cc2ccc3c(c2cc1O)CCCC3(C)C` next.
## Result 50

====

Catalogue of GI50 readings, one per entry.
- measurement notes: Cytotoxicity against human MRC5 cells assessed as growth inhibition by WST-8 assay
- Assay type: cell-based
Kindly answer with a numeric value in µM, unit omitted.

Previously resolved entries follow.
CC(C)c1cc2c(cc1O)[C@@]1(C)CCCC(C)(C)[C@@H]1CC2: 40
CC(C)c1cc2c(c(O)c1O)[C@@]1(C)CCCC(C)(C)C1=C(O)C2=O: 24.8

Could you now consider this next molecule?
## Task Value lookup for GI50; key = CC(C)c1cc2c(cc1O)[C@@]1(C)CCCC(C)(C)[C@@H]1C[C@H]2CC1=CCC(O)(C(C)C)CC1 (stereo partly drawn)
## Result 58.4

====

- measurement notes: Cytotoxicity against human MRC5 cells assessed as growth inhibition by WST-8 assay
- Assay type: cell-based
recorded endpoint: GI50 (µM)
Kindly answer with a numeric value in µM, unit omitted.

## Task Value lookup for GI50; key = `CC(C)c1cc2c(cc1O)[C@@]1(C)CCCC(C)(C)[C@@H]1C=C2`
## Result 59.2

## Task Try `CC(C)c1cc2ccc3c(c2cc1O)CCCC3(C)C` next.
## Result 55.4

## Task Try `CC(C)c1cc2c(cc1O)[C@@]1(C)CCCC(C)(C)C1=C(O)C2=O` next.
## Result 20

## Task Try CC(C)c1cc2c(c(O)c1O)[C@@]1(C)CCCC(C)(C)[C@@H]1CC2=O [DEMETHYLCRYPTOJAPONOL] next.
## Result 40.2

## Task Try CC(C)c1cc2c(cc1O)[C@@]1(C)CCCC(C)(C)[C@@H]1CC2O (stereo not given in full) next.
## Result 70.5

====

- System: HL-60
- measurement notes: Cytotoxicity against human HL60 cells assessed as growth inhibition by WST-8 assay
- Format: functional
Catalogue of GI50 readings, one per entry.
Kindly report the value followed by its unit.

Previously resolved entries follow.
CC(C)c1cc2c(cc1O)[C@@]1(C)CCCC(C)(C)[C@@H]1C=C2: 66.5 µM
CC(C)c1cc2c(c(O)c1O)[C@@]1(C)CCCC(C)(C)[C@@H]1CC2=O: 35.3 µM
CC(C)C1=C(O)C(=O)C2=C(C=C[C@H]3C(C)(C)CCC[C@]23C)C1=O: 30 µM

Could you now consider this next molecule?
## Task Value lookup for GI50; key = `CC(C)c1cc2c(c(O)c1O)[C@@]1(C)CCCC(C)(C)C1=C(O)C2=O`
## Result 13.3 µM
